- targetDesc: KDM5A
- testName: inhibition of recombinant KDM5 demethylase activity (H3K4me3 peptide); legend calls it IC50
pEC50: −log10 of the molar value. Where no end group is shown, it is not given here.

| binder | pEC50 |
| --- | --- |
| TEDSKTHHH (also: fluorescein label in FP assay, end not given here) [EP4] | 6.37 |
